Measured GI50, listed per entry for reference.
test system: DU-145; assay: Cytotoxicity against human DU145 cells after 48 hrs by sulforhodamine B assay; type: functional; details: DU-145, 48 h

Quick check: GI50 of CC(C)[C@@H]1NC(=O)[C@H](C)OC(=O)[C@@H](C(C)C)NC(=O)[C@@H](CC2CCCCC2)OC(=O)[C@H]([C@@H](C)OC(C)(C)C)NC(=O)[C@H](C)OC(=O)[C@@H](C(C)C)NC(=O)[C@@H](CC2CCCCC2)OC(=O)[C@H](C(C)C)NC(=O)[C@H](C)OC(=O)[C@@H](C(C)C)NC(=O)[C@@H](CC2CCCCC2)OC1=O ?
0.09 µM

Quick check: GI50 of CC(C)C[C@H]1OC(=O)[C@H](C(C)C)NC(=O)[C@H](C)OC(=O)[C@@H](C(C)C)NC(=O)[C@@H](CC(C)C)OC(=O)[C@H]([C@@H](C)O)NC(=O)[C@H](C)OC(=O)[C@@H](C(C)C)NC(=O)[C@@H](CC(C)C)OC(=O)[C@H](C(C)C)NC(=O)[C@H](C)OC(=O)[C@@H](C(C)C)NC1=O ?
0.0052 µM

Quick check: GI50 of CC(C)[C@@H]1NC(=O)[C@H](C)OC(=O)[C@@H](C(C)C)NC(=O)[C@@H](CC2CCCCC2)OC(=O)[C@H](C(C)C)NC(=O)[C@H](C)OC(=O)[C@@H](C(C)C)NC(=O)[C@@H](CC2CCCCC2)OC(=O)[C@H](Cc2ccc(O)cc2)NC(=O)[C@H](C)OC(=O)[C@@H](C(C)C)NC(=O)[C@@H](CC2CCCCC2)OC1=O ?
0.164 µM
